Data credit: patent US9850225B2

- assayedTarget: PD-1/PD-L1 interaction (PD-1-Ig / PD-L1-His) (Homo sapiens (Human))
- Sequence (Q9NZQ7 other isoform, or with tags, fused parts or gaps): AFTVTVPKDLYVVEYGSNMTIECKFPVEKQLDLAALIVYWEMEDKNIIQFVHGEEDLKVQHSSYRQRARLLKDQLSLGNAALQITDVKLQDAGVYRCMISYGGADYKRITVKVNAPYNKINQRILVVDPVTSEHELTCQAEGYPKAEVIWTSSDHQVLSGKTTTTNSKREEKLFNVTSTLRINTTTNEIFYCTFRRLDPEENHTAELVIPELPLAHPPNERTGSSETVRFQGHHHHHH
- procedureText: PD-1/PD-L1 Homogenous Time-Resolved Fluorescence (HTRF) binding assay
- conditionLabel: PD-1/PD-L1 HTRF binding assay; value given as range class; read-out: Range or IC50
pIC50: −log10 of the molar value.
Reported pIC50 is given for each of the following compounds.

Look over these answered cases.
# compound, assayedTarget, pIC50
rows = [
    ("Cc1cc(CN[C@@](C)(CO)C(=O)O)c(OCc2cncc(C#N)c2)cc1OCc1cccc(-c2ccc3c(c2)OCCO3)c1C", "PD-1/PD-L1 interaction (PD-1-Ig / PD-L1-His) (Homo sapiens (Human))", "8.00 to 9.22"),
    ("COc1ccc(COc2cc(OCc3cccc(-c4ccccc4)c3C)ccc2CNCCNC(C)=O)cc1", "PD-1/PD-L1 interaction (PD-1-Ig / PD-L1-His) (Homo sapiens (Human))", "4.70 to 7.00"),
    ("Cc1c(COc2cc(OCc3cccc(C#N)c3)c(CN3CCCC3C(=O)O)cc2Cl)cccc1-c1ccc2c(c1)OCCO2 (centres unmarked)", "PD-1/PD-L1 interaction (PD-1-Ig / PD-L1-His) (Homo sapiens (Human))", "8.00 to 9.22"),
    ("CC(=O)NCCNCc1ccc(OCc2cccc(-c3ccccc3)c2C)cc1OCc1ccc(S(C)(=O)=O)cc1", "PD-1/PD-L1 interaction (PD-1-Ig / PD-L1-His) (Homo sapiens (Human))", "4.70 to 7.00"),
]

Entry `CC(=O)NCCNCc1ccc(OCc2cccc(-c3ccccc3)c2C)cc1OCc1ccccc1C(F)(F)F` has what pIC50?
4.70 to 7.00
